Can you tell me relative viability for the items I'm about to list?
- System: NCI-H650
- methodDescription: relative viability (nuclei count vs DMSO), 5 days (fraction); higher = more cells survive
- cond: first compound 0.1 µM
Form: value (number only, do not type unit).

-- ask Given the entry Cc1cn(-c2cc(NC(=O)c3ccc(C)c(Nc4nccc(-c5cccnc5)n4)c3)cc(C(F)(F)F)c2)cn1 [Nilotinib] + Nc1ncn([C@H]2C[C@H](O)[C@@H](CO)O2)c(=O)n1 [Decitabine] (partner 2 µM) , report its measured relative viability.
-- reply 0.306

-- ask Given the entry Cc1cn(-c2cc(NC(=O)c3ccc(C)c(Nc4nccc(-c5cccnc5)n4)c3)cc(C(F)(F)F)c2)cn1 [Nilotinib] + C[C@@H](Oc1cc(-c2cnn(C3CCNCC3)c2)cnc1N)c1c(Cl)ccc(F)c1Cl [Crizotinib] (partner 1 µM) , report its measured relative viability.
-- reply 0.715

-- ask Given the entry Cc1cn(-c2cc(NC(=O)c3ccc(C)c(Nc4nccc(-c5cccnc5)n4)c3)cc(C(F)(F)F)c2)cn1 [Nilotinib] + O=C(CCCCCCC(=O)Nc1ccccc1)NO [Vorinostat] (partner 1 µM) , report its measured relative viability.
-- reply 0.377

====

Can you tell me relative viability for the items I'm about to list?
- Tested on: SW 900
- methodDescription: relative viability (nuclei count vs DMSO), 5 days (fraction); higher = more cells survive
- cond: first compound 0.6325 µM
Form: value (number only, do not type unit).

-- ask Given the entry CN1CCN(CCOc2cc(OC3CCOCC3)c3c(Nc4c(Cl)ccc5c4OCO5)ncnc3c2)CC1 [Saracatinib] + CC(=O)c1c(C)c2cnc(Nc3ccc(N4CCNCC4)cn3)nc2n(C2CCCC2)c1=O [Palbociclib] (partner 0.5 µM) , report its measured relative viability.
-- reply 0.383

-- ask Given the entry CN1CCN(CCOc2cc(OC3CCOCC3)c3c(Nc4c(Cl)ccc5c4OCO5)ncnc3c2)CC1 [Saracatinib] + Cc1cc(Nc2cc(N3CCN(C)CC3)nc(Sc3ccc(NC(=O)C4CC4)cc3)n2)n[nH]1 [Tozasertib] (partner 0.1 µM) , report its measured relative viability.
-- reply 0.645

-- ask Given the entry Cc1csc(=NC2CCCCC2)n1/N=C/c1ccc(O)c(O)c1O [MIM1] + Nc1ncn([C@H]2C[C@H](O)[C@@H](CO)O2)c(=O)n1 [Decitabine] (partner 2 µM) , report its measured relative viability.
-- reply 0.482

-- ask Given the entry CN1CCN(CCOc2cc(OC3CCOCC3)c3c(Nc4c(Cl)ccc5c4OCO5)ncnc3c2)CC1 [Saracatinib] + COc1cccc2cc(-c3nc([C@H]4CC[C@H](C(=O)O)CC4)n4ncnc(N)c34)[nH]c12 [OSI-027] (partner 0.5 µM) , report its measured relative viability.
-- reply 0.575

====

- Test system: NCI-H661
- methodDescription: relative viability (nuclei count vs DMSO), 5 days (fraction); higher = more cells survive
- cond: first compound 0.6325 µM
readoutType: relative viability
Form: value (number only, do not type unit).

-- ask Given the entry Cc1csc(=NC2CCCCC2)n1/N=C/c1ccc(O)c(O)c1O [MIM1] + CC(=O)Nc1cccc(-n2c(=O)n(C3CC3)c(=O)c3c(Nc4ccc(I)cc4F)n(C)c(=O)c(C)c32)c1 [Trametinib] (partner 0.02 µM) , report its measured relative viability.
-- reply 0.587

-- ask Given the entry CN1CCN(CCOc2cc(OC3CCOCC3)c3c(Nc4c(Cl)ccc5c4OCO5)ncnc3c2)CC1 [Saracatinib] + C[C@@H](Oc1cc(-c2cnn(C3CCNCC3)c2)cnc1N)c1c(Cl)ccc(F)c1Cl [Crizotinib] (partner 1 µM) , report its measured relative viability.
-- reply 1.03

-- ask Given the entry Cc1csc(=NC2CCCCC2)n1/N=C/c1ccc(O)c(O)c1O [MIM1] + COc1cc2c(Oc3ccc(NC(=O)C4(C(=O)Nc5ccc(F)cc5)CC4)cc3F)ccnc2cc1OCCCN1CCOCC1 [Foretinib] (partner 0.25 µM) , report its measured relative viability.
-- reply 1

-- ask Given the entry Cc1csc(=NC2CCCCC2)n1/N=C/c1ccc(O)c(O)c1O [MIM1] + O=C(CCCCCCC(=O)Nc1ccccc1)NO [Vorinostat] (partner 1 µM) , report its measured relative viability.
-- reply 0.748

-- ask Given the entry Cc1csc(=NC2CCCCC2)n1/N=C/c1ccc(O)c(O)c1O [MIM1] + Nc1nc2[nH]cc(CCc3ccc(C(=O)N[C@@H](CCC(=O)O)C(=O)O)cc3)c2c(=O)[nH]1 [Pemetrexed] (partner 0.2 µM) , report its measured relative viability.
-- reply 0.908

-- ask Given the entry CN1CCN(CCOc2cc(OC3CCOCC3)c3c(Nc4c(Cl)ccc5c4OCO5)ncnc3c2)CC1 [Saracatinib] + Nc1ncn([C@H]2C[C@H](O)[C@@H](CO)O2)c(=O)n1 [Decitabine] (partner 2 µM) , report its measured relative viability.
-- reply 0.534

-- ask Given the entry CN1CCN(CCOc2cc(OC3CCOCC3)c3c(Nc4c(Cl)ccc5c4OCO5)ncnc3c2)CC1 [Saracatinib] + COc1cc2c(Oc3ccc(NC(=O)C4(C(=O)Nc5ccc(F)cc5)CC4)cc3F)ccnc2cc1OCCCN1CCOCC1 [Foretinib] (partner 0.25 µM) , report its measured relative viability.
-- reply 0.993

-- ask Given the entry CN1CCN(CCOc2cc(OC3CCOCC3)c3c(Nc4c(Cl)ccc5c4OCO5)ncnc3c2)CC1 [Saracatinib] + CC(C)C[C@H](NC(=O)[C@H](Cc1ccccc1)NC(=O)c1cnccn1)B(O)O [Bortezomib] (partner 0.002 µM) , report its measured relative viability.
-- reply 0.837

-- ask Given the entry Cc1csc(=NC2CCCCC2)n1/N=C/c1ccc(O)c(O)c1O [MIM1] + CCNC(=O)c1noc(-c2cc(C(C)C)c(O)cc2O)c1-c1ccc(CN2CCOCC2)cc1 [Luminespib] (partner 0.01 µM) , report its measured relative viability.
-- reply 0.928

-- ask Given the entry Cc1csc(=NC2CCCCC2)n1/N=C/c1ccc(O)c(O)c1O [MIM1] + C[C@]1(O)C[C@@H](c2nc(-c3ccc4ccc(-c5ccccc5)nc4c3)c3c(N)nccn32)C1 [Linsitinib] (partner 1 µM) , report its measured relative viability.
-- reply 0.737

-- ask Given the entry CN1CCN(CCOc2cc(OC3CCOCC3)c3c(Nc4c(Cl)ccc5c4OCO5)ncnc3c2)CC1 [Saracatinib] + COc1cccc2cc(-c3nc([C@H]4CC[C@H](C(=O)O)CC4)n4ncnc(N)c34)[nH]c12 [OSI-027] (partner 0.5 µM) , report its measured relative viability.
-- reply 0.502

-- ask Given the entry CN1CCN(CCOc2cc(OC3CCOCC3)c3c(Nc4c(Cl)ccc5c4OCO5)ncnc3c2)CC1 [Saracatinib] + Nc1nc2[nH]cc(CCc3ccc(C(=O)N[C@@H](CCC(=O)O)C(=O)O)cc3)c2c(=O)[nH]1 [Pemetrexed] (partner 0.2 µM) , report its measured relative viability.
-- reply 0.846

====

- Tested on: SK-LU-1
- methodDescription: relative viability (nuclei count vs DMSO), 5 days (fraction); higher = more cells survive
- cond: first compound 0.6325 µM
Assign labels as follows, please: yes for relative viability below 0.6; no for relative viability equal to or exceeding 0.6.

-- ask Quick check: does Cc1csc(=NC2CCCCC2)n1/N=C/c1ccc(O)c(O)c1O [MIM1] + Nc1nc2[nH]cc(CCc3ccc(C(=O)N[C@@H](CCC(=O)O)C(=O)O)cc3)c2c(=O)[nH]1 [Pemetrexed] (partner 0.2 µM) have relative viability under 0.6?
-- reply no

-- ask Quick check: does Cc1csc(=NC2CCCCC2)n1/N=C/c1ccc(O)c(O)c1O [MIM1] + CS(=O)(=O)CCNCc1ccc(-c2ccc3ncnc(Nc4ccc(OCc5cccc(F)c5)c(Cl)c4)c3c2)o1 [Lapatinib] (partner 2 µM) have relative viability under 0.6?
-- reply no

-- ask Quick check: does CN1CCN(CCOc2cc(OC3CCOCC3)c3c(Nc4c(Cl)ccc5c4OCO5)ncnc3c2)CC1 [Saracatinib] + O=C(CCCCCCC(=O)Nc1ccccc1)NO [Vorinostat] (partner 1 µM) have relative viability under 0.6?
-- reply no

-- ask Quick check: does CN1CCN(CCOc2cc(OC3CCOCC3)c3c(Nc4c(Cl)ccc5c4OCO5)ncnc3c2)CC1 [Saracatinib] + N=C(N)NC(=N)NCCc1ccccc1 [Phenformin] (partner 250 µM) have relative viability under 0.6?
-- reply yes

-- ask Quick check: does Cc1csc(=NC2CCCCC2)n1/N=C/c1ccc(O)c(O)c1O [MIM1] + O=C(c1cc(Cc2n[nH]c(=O)c3ccccc23)ccc1F)N1CCN(C(=O)C2CC2)CC1 [Olaparib] (partner 8 µM) have relative viability under 0.6?
-- reply yes

-- ask Quick check: does CN1CCN(CCOc2cc(OC3CCOCC3)c3c(Nc4c(Cl)ccc5c4OCO5)ncnc3c2)CC1 [Saracatinib] + CC(=O)c1c(C)c2cnc(Nc3ccc(N4CCNCC4)cn3)nc2n(C2CCCC2)c1=O [Palbociclib] (partner 0.5 µM) have relative viability under 0.6?
-- reply yes

-- ask Quick check: does Cc1csc(=NC2CCCCC2)n1/N=C/c1ccc(O)c(O)c1O [MIM1] + CC(=O)c1c(C)c2cnc(Nc3ccc(N4CCNCC4)cn3)nc2n(C2CCCC2)c1=O [Palbociclib] (partner 0.5 µM) have relative viability under 0.6?
-- reply yes

-- ask Quick check: does Cc1csc(=NC2CCCCC2)n1/N=C/c1ccc(O)c(O)c1O [MIM1] + O=C(CCCCCCC(=O)Nc1ccccc1)NO [Vorinostat] (partner 1 µM) have relative viability under 0.6?
-- reply no

-- ask Quick check: does CN1CCN(CCOc2cc(OC3CCOCC3)c3c(Nc4c(Cl)ccc5c4OCO5)ncnc3c2)CC1 [Saracatinib] + C[C@@H](Oc1cc(-c2cnn(C3CCNCC3)c2)cnc1N)c1c(Cl)ccc(F)c1Cl [Crizotinib] (partner 1 µM) have relative viability under 0.6?
-- reply yes
